molecular target: Cytochrome P450 2C19 (Homo sapiens); experiment: Cytochrome P450 Family 2 Subfamily C Member 19 (CYP2C19) small molecule antagonists: luciferase reporter qHTS assay (AID 1671197); settings: P450-Glo CYP2C19 enzyme, luciferin luminescence, 1 h; series mostly up to 115 µM; further: nearly all actives have a fitted effect of over 65% in size
Records with an inconclusive call do not appear. Activity calls are given as the source filed them. The call rests on the fitted dose curve; in most records, active means well fitted inhibition curve with a large enough effect in the repeat runs; inconclusive means weak or mixed curves; inactive means no such curve, though single readings can be large or run the other way.
One label from this list, please: active, inactive

Worked cases, answers included:
{"Compound": "CCCCCCCCCCCCCCCCOP(=O)([O-])OCC[N+](C)(C)C", "Class Label": "inactive"}
{"Compound": "CC(C)C1=CC2=CC[C@@H]3[C@](C)(CCC[C@@]3(C)C(=O)O)[C@H]2CC1", "Class Label": "active"}
{"Compound": "Cc1c(C(=O)NCCO)[n+](=O)c2ccccc2n1[O-]", "Class Label": "inactive"}

Query compound follows.
[Q] Record lookup: outcome of this test for CC(=O)N(CC(O)CN(C(C)=O)c1c(I)c(C(=O)NCC(O)CO)c(I)c(C(=O)NCC(O)CO)c1I)c1c(I)c(C(=O)NCC(O)CO)c(I)c(C(=O)NCC(O)CO)c1I (centres undefined) ?
[A] inactive
